# System: NCI-H1395
# Measurement description: relative viability (nuclei count vs DMSO), 5 days (fraction); higher = more cells survive
# Protocol conditions: first compound 1.265 µM
Each entry below lists one item and its recorded relative viability value.
Just the number, please.

COc1cc(N2CCC(C(N)=O)CC2)ccc1Nc1nc(N)c(Cl)c(Nc2ccccc2S(=O)(=O)C(C)C)n1 [HG-5-88-01] + Cc1nc(NC(=O)N2CCC[C@H]2C(N)=O)sc1-c1ccnc(C(C)(C)C(F)(F)F)c1 [Alpelisib] (partner 2 µM): 0.909
COc1cc(N2CCC(C(N)=O)CC2)ccc1Nc1nc(N)c(Cl)c(Nc2ccccc2S(=O)(=O)C(C)C)n1 [HG-5-88-01] + Nc1nc2[nH]cc(CCc3ccc(C(=O)N[C@@H](CCC(=O)O)C(=O)O)cc3)c2c(=O)[nH]1 [Pemetrexed] (partner 0.2 µM): 1.05
COc1cc(N2CCC(C(N)=O)CC2)ccc1Nc1nc(N)c(Cl)c(Nc2ccccc2S(=O)(=O)C(C)C)n1 [HG-5-88-01] + CC1(C)CCC(c2ccc(Cl)cc2)=C(CN2CCN(c3ccc(C(=O)NS(=O)(=O)c4ccc(N[C@H](CCN5CCOCC5)CSc5ccccc5)c(S(=O)(=O)C(F)(F)F)c4)cc3)CC2)C1 [Navitoclax] (partner 0.5 µM): 1.03

INPUT: Look up relative viability: COc1cc(N2CCC(C(N)=O)CC2)ccc1Nc1nc(N)c(Cl)c(Nc2ccccc2S(=O)(=O)C(C)C)n1 [HG-5-88-01] + Cc1nc(Nc2ncc(C(=O)Nc3c(C)cccc3Cl)s2)cc(N2CCN(CCO)CC2)n1 [Dasatinib] (partner 0.075 µM)
OUTPUT: 0.394

INPUT: Follow-up item: COc1cc(N2CCC(C(N)=O)CC2)ccc1Nc1nc(N)c(Cl)c(Nc2ccccc2S(=O)(=O)C(C)C)n1 [HG-5-88-01] + O=C(c1cc(Cc2n[nH]c(=O)c3ccccc23)ccc1F)N1CCN(C(=O)C2CC2)CC1 [Olaparib] (partner 8 µM)
OUTPUT: 0.472

INPUT: Would you kindly repeat that for Clc1ccc(Nc2nnc(Cc3ccncc3)c3ccccc23)cc1 [Vatalanib] + CC1(C)CCC(c2ccc(Cl)cc2)=C(CN2CCN(c3ccc(C(=O)NS(=O)(=O)c4ccc(N[C@H](CCN5CCOCC5)CSc5ccccc5)c(S(=O)(=O)C(F)(F)F)c4)cc3)CC2)C1 [Navitoclax] (partner 0.5 µM) ?
OUTPUT: 1.07

* * *

# Test system: NCI-H1915
# Measurement description: relative viability (nuclei count vs DMSO), 5 days (fraction); higher = more cells survive
# Protocol conditions: first compound 0.04 µM
Property measured: relative viability
Respond using a number only.

Clc1ccc(Nc2nnc(Cc3ccncc3)c3ccccc23)cc1 [Vatalanib] + CS(=O)(=O)CCNCc1ccc(-c2ccc3ncnc(Nc4ccc(OCc5cccc(F)c5)c(Cl)c4)c3c2)o1 [Lapatinib] (partner 2 µM): 0.974

// switching to the query compound
INPUT: Using the record for C[C@@H]1CN(CC(=O)Nc2ccc3c(c2)Cc2cccc(-c4cc(=O)cc(N5CCOCC5)o4)c2S3)C[C@H](C)O1 + Cc1nc(Nc2ncc(C(=O)Nc3c(C)cccc3Cl)s2)cc(N2CCN(CCO)CC2)n1 [Dasatinib] (partner 0.075 µM) , report its relative viability.
OUTPUT: 0.307

* * *

# Test system: EKVX
# Measurement description: relative viability (nuclei count vs DMSO), 5 days (fraction); higher = more cells survive
# Protocol conditions: first compound 0.04 µM
We begin with a simple list: items and their reported relative viability.
Reply briefly: the number, and no unit.

Here is how some molecules turned out for relative viability.
COc1cc(N2CCC(C(N)=O)CC2)ccc1Nc1nc(N)c(Cl)c(Nc2ccccc2S(=O)(=O)C(C)C)n1 [HG-5-88-01] + COc1cccc2cc(-c3nc([C@H]4CC[C@H](C(=O)O)CC4)n4ncnc(N)c34)[nH]c12 [OSI-027] (partner 0.5 µM): 0.714
C[C@@H]1CN(CC(=O)Nc2ccc3c(c2)Cc2cccc(-c4cc(=O)cc(N5CCOCC5)o4)c2S3)C[C@H](C)O1 + Nc1ncn([C@H]2C[C@H](O)[C@@H](CO)O2)c(=O)n1 [Decitabine] (partner 2 µM): 0.302
C[C@@H]1CN(CC(=O)Nc2ccc3c(c2)Cc2cccc(-c4cc(=O)cc(N5CCOCC5)o4)c2S3)C[C@H](C)O1 + CS(=O)(=O)CCNCc1ccc(-c2ccc3ncnc(Nc4ccc(OCc5cccc(F)c5)c(Cl)c4)c3c2)o1 [Lapatinib] (partner 2 µM): 0.271
Clc1ccc(Nc2nnc(Cc3ccncc3)c3ccccc23)cc1 [Vatalanib] + CC(=O)c1c(C)c2cnc(Nc3ccc(N4CCNCC4)cn3)nc2n(C2CCCC2)c1=O [Palbociclib] (partner 0.5 µM): 0.366

Here is another molecule to look at.
INPUT: Requested field: relative viability. Item: Clc1ccc(Nc2nnc(Cc3ccncc3)c3ccccc23)cc1 [Vatalanib] + CC(C)C[C@H](NC(=O)[C@H](Cc1ccccc1)NC(=O)c1cnccn1)B(O)O [Bortezomib] (partner 0.002 µM)
OUTPUT: 1.1
